test: Sprague Dawley (SD) rat absorption test (pharmacokinetics); format: in vivo, SD rats; settings: female, Sprague-Dawley, rat, plasma, po, 10 mg/kg, female SD rats, oral, 10 mg/kg, Day 1
assay endpoint: half-life (h)
// units = h; emit number, no label

# half-life (compound: CNC(=O)[C@H](C)Cn1cnc2ccc(-c3cnc(OC)c(NS(=O)(=O)c4ccc(F)cc4F)c3)cc2c1=O ) is 2.92

----------
test: Beagle dog absorption test (pharmacokinetics); assay type: in vivo, Beagle dogs; conditions: both sexes, beagle, dog, plasma, po, 0.3 mg/kg, male and female Beagle dogs, single
assay endpoint: AUC(0-t) (µM·h)
// units = µM·h; emit number, no label

# AUC(0-t) (molecule: CNC(=O)[C@H](C)Cn1cnc2ccc(-c3cnc(OC)c(NS(=O)(=O)c4ccc(F)cc4F)c3)cc2c1=O ) is 1.29

----------
test: Sprague Dawley (SD) rat absorption test (pharmacokinetics); assay type: in vivo, SD rats; details: Sprague-Dawley, rat, plasma; female SD rats, oral, 30 mg/kg, single
assay endpoint: Tmax (min)
// units = min; emit number, no label

# Tmax (compound: CNC(=O)[C@H](C)Cn1cnc2ccc(-c3cnc(OC)c(NS(=O)(=O)c4ccc(F)cc4F)c3)cc2c1=O ) is 30

----------
target: Mutant PI3Kα (E545K) (Homo sapiens, UniProt P42336, E545K); assay: In vitro enzymatic activity test, mutant PI3Kα (E545K)
Sequence (P42336 whole entry E545K): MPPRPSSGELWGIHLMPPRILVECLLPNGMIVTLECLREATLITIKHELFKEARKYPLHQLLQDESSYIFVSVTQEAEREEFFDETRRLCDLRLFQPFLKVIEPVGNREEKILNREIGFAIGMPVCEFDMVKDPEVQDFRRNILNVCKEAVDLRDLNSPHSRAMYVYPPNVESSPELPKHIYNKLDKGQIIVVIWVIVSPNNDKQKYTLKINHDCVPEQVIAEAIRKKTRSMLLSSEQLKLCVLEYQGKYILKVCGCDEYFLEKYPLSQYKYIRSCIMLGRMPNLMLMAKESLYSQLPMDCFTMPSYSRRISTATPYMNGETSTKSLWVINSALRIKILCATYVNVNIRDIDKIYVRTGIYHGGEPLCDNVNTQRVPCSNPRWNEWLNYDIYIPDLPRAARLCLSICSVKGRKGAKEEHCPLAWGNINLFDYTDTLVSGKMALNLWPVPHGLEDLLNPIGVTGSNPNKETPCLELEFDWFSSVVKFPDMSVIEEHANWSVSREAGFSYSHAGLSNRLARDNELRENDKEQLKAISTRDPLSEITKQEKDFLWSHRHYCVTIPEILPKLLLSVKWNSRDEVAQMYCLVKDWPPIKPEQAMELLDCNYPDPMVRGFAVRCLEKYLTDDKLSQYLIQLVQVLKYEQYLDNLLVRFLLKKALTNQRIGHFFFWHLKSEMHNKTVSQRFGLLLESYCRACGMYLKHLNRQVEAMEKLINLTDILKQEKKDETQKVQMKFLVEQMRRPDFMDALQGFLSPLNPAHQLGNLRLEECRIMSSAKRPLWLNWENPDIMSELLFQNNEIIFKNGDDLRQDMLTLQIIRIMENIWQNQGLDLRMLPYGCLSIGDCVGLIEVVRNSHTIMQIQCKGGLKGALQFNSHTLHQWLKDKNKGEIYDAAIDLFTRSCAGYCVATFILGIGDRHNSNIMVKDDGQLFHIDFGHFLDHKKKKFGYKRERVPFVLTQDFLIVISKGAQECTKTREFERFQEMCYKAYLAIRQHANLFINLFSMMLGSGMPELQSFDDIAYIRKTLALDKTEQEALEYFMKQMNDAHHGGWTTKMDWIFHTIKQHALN
Sequence (P27986 whole entry partner): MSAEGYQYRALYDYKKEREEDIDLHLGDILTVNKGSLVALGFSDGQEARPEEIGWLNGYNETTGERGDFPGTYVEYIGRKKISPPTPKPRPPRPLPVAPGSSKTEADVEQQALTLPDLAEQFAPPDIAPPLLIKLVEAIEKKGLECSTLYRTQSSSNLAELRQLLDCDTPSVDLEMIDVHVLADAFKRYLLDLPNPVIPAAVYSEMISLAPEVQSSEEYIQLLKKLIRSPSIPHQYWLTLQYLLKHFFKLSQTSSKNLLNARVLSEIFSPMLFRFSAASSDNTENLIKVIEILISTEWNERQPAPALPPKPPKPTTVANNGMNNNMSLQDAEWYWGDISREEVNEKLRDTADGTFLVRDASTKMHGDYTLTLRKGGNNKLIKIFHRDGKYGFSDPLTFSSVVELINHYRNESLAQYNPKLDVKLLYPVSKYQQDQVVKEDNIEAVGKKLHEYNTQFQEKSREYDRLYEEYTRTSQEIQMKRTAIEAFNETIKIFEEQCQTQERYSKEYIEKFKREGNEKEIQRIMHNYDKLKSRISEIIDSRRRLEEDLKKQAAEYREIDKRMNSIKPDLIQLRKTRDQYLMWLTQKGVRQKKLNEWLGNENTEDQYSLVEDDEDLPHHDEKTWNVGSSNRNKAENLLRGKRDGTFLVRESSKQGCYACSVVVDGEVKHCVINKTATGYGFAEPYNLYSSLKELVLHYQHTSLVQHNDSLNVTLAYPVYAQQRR
assay endpoint: IC50
Answer format: number, then unit.

# IC50 (compound: CNC(=O)[C@H](C)Cn1cnc2ccc(-c3cnc(OC)c(NS(=O)(=O)c4ccc(F)cc4F)c3)cc2c1=O ) is 1.13 nM

----------
assay: Beagle dog absorption test (pharmacokinetics); type: in vivo, Beagle dogs; details: both sexes, dog, plasma, iv; male and female Beagle dogs, vein, 0.3 mg/kg, single
assay endpoint: clearance (mL/min/kg)
// units = mL/min/kg; emit number, no label

# clearance (compound: CNC(=O)[C@H](C)Cn1cnc2ccc(-c3cnc(OC)c(NS(=O)(=O)c4ccc(F)cc4F)c3)cc2c1=O ) is 6.18

----------
Experiment: Sprague Dawley (SD) rat absorption test (pharmacokinetics)
Type: in vivo, SD rats
Settings: male, Sprague-Dawley, rat, plasma, po, 3 mg/kg, male SD rats, single
Protocol: SD rats were given the crystal form A of the compound represented by formula (I) by single or multiple oral gavage and single intravenous injection respectively, with 6 rats in each group, half male and half female. […] According to the drug plasma concentration-time curve, the pharmacokinetic parameters were calculated. […]
assay endpoint: half-life (h)
// units = h; emit number, no label

# half-life (compound: CNC(=O)[C@H](C)Cn1cnc2ccc(-c3cnc(OC)c(NS(=O)(=O)c4ccc(F)cc4F)c3)cc2c1=O ) is 2.26

----------
experiment: Beagle dog absorption test (pharmacokinetics); type: in vivo, Beagle dogs; settings: both sexes, beagle, dog, plasma, po, 3 mg/kg, male and female Beagle dogs, single
assay endpoint: AUC(0-t)
Answer format: number, then unit.

# AUC(0-t) (compound: CNC(=O)[C@H](C)Cn1cnc2ccc(-c3cnc(OC)c(NS(=O)(=O)c4ccc(F)cc4F)c3)cc2c1=O ) is 14.8 µM·h

----------
assay: Beagle dog absorption test (pharmacokinetics); type: in vivo, Beagle dogs; settings: both sexes, dog, plasma; male and female Beagle dogs, oral, 0.3 mg/kg, single
assay endpoint: half-life (h)
// units = h; emit number, no label

# half-life (compound: CNC(=O)[C@H](C)Cn1cnc2ccc(-c3cnc(OC)c(NS(=O)(=O)c4ccc(F)cc4F)c3)cc2c1=O ) is 6.92

----------
assay: Sprague Dawley (SD) rat absorption test (pharmacokinetics); assay type: in vivo, SD rats; conditions: female, Sprague-Dawley, rat, plasma, po, 10 mg/kg, female SD rats, oral, 10 mg/kg, Day 1
assay endpoint: Cmax
Answer format: number, then unit.

# Cmax (compound: CNC(=O)[C@H](C)Cn1cnc2ccc(-c3cnc(OC)c(NS(=O)(=O)c4ccc(F)cc4F)c3)cc2c1=O ) is 12.1 µM

Where do the numbers come from? From patent US20220213060A1.
